These measurements were taken from the supplement of paper PMC11061612.

# System: NCI-H727 (Other Solid Carcinomas);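 also: after 72 h of two-drug dosing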
# ASSAY_INFO: Bliss excess, mean over the matrix (fraction); higher = more synergy
RECORDED_ENDPOINT: Bliss excess

1) CN(CCO)CC[C@H](CSc1ccccc1)Nc1ccc(S(=O)(=O)NC(=O)c2ccc(N3CCC([C@@H](O)c4ccccc4-c4ccc(Cl)cc4)CC3)cc2)cc1S(=O)(=O)C(F)(F)F [AZD4320] + C[C@@H](Nc1cc(F)cc(F)c1)c1cc(C(=O)N(C)C)cc2c(=O)cc(N3CCOCC3)oc12 [AZD8186] (first compound max 1 µM, 7x7, partner max 3 µM) : 0.0309
2) CCN(CCO)CCCOc1ccc2c(Nc3cc(CC(=O)Nc4cccc(F)c4)[nH]n3)ncnc2c1 [AZD2811] + O=C(c1cc(Cc2n[nH]c(=O)c3ccccc23)ccc1F)N1CCN(C(=O)C2CC2)CC1 [Olaparib] (first compound max 1 µM, 7x7, partner max 10 µM) : -0.0184
3) CC(=O)c1c(C)c2cnc(Nc3ccc(N4CCNCC4)cn3)nc2n(C2CCCC2)c1=O [Palbociclib] + CC1(C)CCC(CN2CCN(c3ccc(C(=O)NS(=O)(=O)c4ccc(NCC5CCOCC5)c([N+](=O)[O-])c4)c(Oc4cnc5[nH]ccc5c4)c3)CC2)=C(c2ccc(Cl)cc2)C1 [Venetoclax] (first compound max 10 µM, 7x7, partner max 1 µM) : 0.0029
